target: Caspase-3 (Homo sapiens)
Sequence (P42574 29-175 limits assumed): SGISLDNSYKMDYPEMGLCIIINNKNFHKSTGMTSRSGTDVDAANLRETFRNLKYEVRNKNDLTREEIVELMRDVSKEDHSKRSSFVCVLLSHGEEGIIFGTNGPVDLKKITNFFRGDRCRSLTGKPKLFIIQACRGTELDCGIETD
Sequence (P42574 176-277 limits assumed): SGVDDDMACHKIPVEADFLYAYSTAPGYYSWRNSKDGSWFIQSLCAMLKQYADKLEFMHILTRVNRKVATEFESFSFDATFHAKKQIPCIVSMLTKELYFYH
measuredProperty: IC50 (nM)
// note: answer is a bare numeric in nM

// `COc1ccc(Br)cc1CC(=O)N[C@H](C(=O)N[C@@H](CC(=O)O)C(=O)CSCc1ccccc1)C(C)C` : IC50 value = 17.7
